System: Oryctolagus cuniculus
experimentNotes: Hyperthermic activity in New Zealand rabbit assessed as mean maximum rise in rectal temperature at 0.25 to 21.2 umol/kg administered in marginal ear vein as solution of amine hydrochloride in nonpyrogenic saline relative to l-(2,5-dimethoxy-4-methylphenyl)-2-aminopropane
Assay type: functional, Rectum
Kindly supply the reported fold change (FC) values for the records listed here.
I'd appreciate a reply containing only the number, no unit.

For "COc1cc(CCN)cc(OC)c1OC" , what is its reported fold change (FC)? 0.0006

COc1cc(SC)c(OC)cc1CC(C)N.Cl (racemic) ? 0.54

COc1cc(OC)c(SC)cc1CC(C)N.Cl (racemic) ? 0.028

COc1cc(CC(C)N)c(OC)cc1C.Cl (racemic) ? 1

CCN(CC)C(=O)[C@@H]1C=C2c3cccc4[nH]cc(c34)C[C@H]2N(C)C1 [LYSERGIDE] ? 33

COc1cc(CC(C)N)c(SC)cc1OC.Cl (racemic) ? 0.017

====

Test system: Oryctolagus cuniculus
experimentNotes: Hyperthermic activity in New Zealand rabbit assessed as dose required for 1 degC rise in rectal temperature administered in marginal ear vein as solution of amine hydrochloride in nonpyrogenic saline
Assay type: functional, Rectum
experimentalEndpoint: Activity (µmol/kg)
Express the result in µmol/kg but write the number alone.

Record lookup: for Oryctolagus cuniculus, what Activity belongs to COc1cc(CC(C)N)c(SC)cc1OC.Cl (racemic) ? 14

COc1cc(SC)c(OC)cc1CC(C)N.Cl (racemic) ? 0.5

COc1cc(CC(C)N)c(OC)cc1C.Cl (racemic) ? 0.27

COc1cc(OC)c(SC)cc1CC(C)N.Cl (racemic) ? 9.77
